# Test system: Pseudomonas aeruginosa
# Method description: Antibacterial activity against Pseudomonas aeruginosa ATCC 9027 by broth microdilution method
# Format: functional
Assay endpoint: MIC (µg/mL)
Field format: number, assumed µg/mL, no unit text.

Ask | Would you kindly share the measured MIC for Oc1cccc2c1[C@H](O)[C@@H]1O[C@@H]1C21Oc2cccc3cccc(c23)O1 ?
Reply | 45.5

Ask | Would you kindly share the measured MIC for CN[C@@H]1[C@H](O[C@H]2[C@H](O[C@H]3[C@H](O)[C@@H](O)[C@H](N=C(N)N)[C@@H](O)[C@@H]3N=C(N)N)O[C@@H](C)[C@]2(O)C=O)O[C@@H](CO)[C@H](O)[C@H]1O [STREPTOMYCIN] ?
Reply | 1.7

Ask | Would you kindly share the measured MIC for C=C(C)[C@@H]1CC[C@@]2(C)OC3=C(C[C@@H]12)C(=O)[C@]1(O)CO[C@H]3C1 ?
Reply | 25.5

Ask | Would you kindly share the measured MIC for CC(C)(O)[C@@H]1CC[C@@]2(C)OC3=C(C[C@@H]12)C(=O)[C@]1(O)CO[C@H]3C1 ?
Reply | 52.1

Ask | Would you kindly share the measured MIC for C=C(C)[C@@H]1[C@H](O)C[C@@]2(C)OC3=C(C[C@@H]12)C(=O)[C@]1(O)CO[C@H]3C1 ?
Reply | 53.2

====

Give MIC80 for every item shown.
# Tested on: Candida albicans
# Method description: Antifungal activity against Candida albicans ATCC 24433 assessed as synergistic growth inhibition after 24 hrs in presence of fluconazole by broth microdilution assay
# Type: functional
# Experimental conditions: ATCC 24433, 24 h
Field format: number, assumed µg/mL, no unit text.

Ask | Would you kindly share the measured MIC80 for C[C@](O)(CO)[C@@H]1CC[C@@]2(C)OC3=C(C[C@@H]12)C(=O)[C@]1(O)CO[C@H]3C1 ?
Reply | 25

Ask | Would you kindly share the measured MIC80 for C[C@@]12CC[C@@H]([C@](C)(O)CO)[C@@H]1CC1=C(O2)[C@@H]2C[C@@](O)(CO2)C1=O ?
Reply | 6.3

Ask | Would you kindly share the measured MIC80 for CC(C)[C@@]1(C(=O)O)OC(=O)/C(=C/c2ccccc2)O1 ?
Reply | 6.3

Ask | Would you kindly share the measured MIC80 for CC(C)(O)[C@@H]1CC[C@@]2(C)OC3=C(C[C@@H]12)C(=O)[C@]1(O)CO[C@H]3C1 ?
Reply | 6.3

Ask | Would you kindly share the measured MIC80 for Oc1cccc2c1[C@H](O)[C@@H]1O[C@@H]1C21Oc2cccc3cccc(c23)O1 ?
Reply | 6.3

Ask | Would you kindly share the measured MIC80 for C=C(C)[C@@H]1[C@H](O)C[C@@]2(C)OC3=C(C[C@@H]12)C(=O)[C@]1(O)CO[C@H]3C1 ?
Reply | 25

====

# Tested on: Candida albicans
# Method description: Antibiofilm activity against Candida albicans ATCC 24433 after 24 hrs in presence of fluconazole by XTT-based colorimetric assay
# Assay type: functional
# Experimental conditions: ATCC 24433, 24 h
Assay endpoint: MIC80 (µg/mL)
Field format: number, assumed µg/mL, no unit text.

Ask | Would you kindly share the measured MIC80 for Oc1cccc2c1[C@H](O)[C@@H]1O[C@@H]1C21Oc2cccc3cccc(c23)O1 ?
Reply | 40

Ask | Would you kindly share the measured MIC80 for CC(C)[C@H]1OC(=O)[C@H](Cc2ccccc2)N(C)C(=O)[C@@H](C(C)C)OC(=O)[C@H](Cc2ccccc2)N(C)C(=O)[C@@H](C(C)C)OC(=O)[C@H](Cc2ccccc2)N(C)C1=O ?
Reply | 40

Ask | Would you kindly share the measured MIC80 for C[C@@]12CC[C@@H]([C@](C)(O)CO)[C@@H]1CC1=C(O2)[C@@H]2C[C@@](O)(CO2)C1=O ?
Reply | 40

Ask | Would you kindly share the measured MIC80 for C=C(C)[C@@H]1C[C@H](O)[C@@]2(C)OC3=C(C[C@@H]12)C(=O)[C@]1(O)CO[C@H]3C1 ?
Reply | 80

Ask | Would you kindly share the measured MIC80 for CC(C)(O)[C@@H]1CC[C@@]2(C)OC3=C(C[C@@H]12)C(=O)[C@]1(O)CO[C@H]3C1 ?
Reply | 80

====

# Test system: Pseudomonas aeruginosa
# Method description: Antibacterial activity against Pseudomonas aeruginosa ATCC 9027 by broth microdilution method
# Type: functional
Give MIC for every item shown.

Ask | For the record C=C(C)[C@@H]1CC[C@@]2(C)OC3=C(C[C@@H]12)C(=O)[C@H](OC)C[C@@H]3O , what value of MIC is listed for Pseudomonas aeruginosa?
Reply | > 100 µg/mL

Ask | For the record C[C@@]12CC[C@@H]([C@](C)(O)CO)[C@@H]1CC1=C(O2)[C@@H]2C[C@@](O)(CO2)C1=O , what value of MIC is listed for Pseudomonas aeruginosa?
Reply | > 100 µg/mL

Ask | For the record C=C(C)[C@@H]1CC[C@@]2(C)OC3=C(C[C@@H]12)C(=O)[C@](O)(CO)C[C@@H]3O , what value of MIC is listed for Pseudomonas aeruginosa?
Reply | > 100 µg/mL
